Reference for the values: the supplement of paper PMC6555819

System: PPARg DBDmut:RXRa IVT, anti-PPARg (DBD mutation: PPARg1 K132A/R137A, NR concentration 270 nM, RXRa partner concentration 90 nM)
measurement.notes: PBM binding z-score (relative to random genomic background probes); higher = stronger binding; sequences stand for … in GC…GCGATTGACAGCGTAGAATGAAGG

{"columns": ["sequence.chain", "PBM binding z-score"],
 "data": [
  ["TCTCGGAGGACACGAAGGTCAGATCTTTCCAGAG", -0.994],
  ["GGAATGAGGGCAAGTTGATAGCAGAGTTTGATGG", 1.16],
  ["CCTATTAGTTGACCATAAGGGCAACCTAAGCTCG", 0.365],
  ["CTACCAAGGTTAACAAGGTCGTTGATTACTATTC", 0.186],
  ["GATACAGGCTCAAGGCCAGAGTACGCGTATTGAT", -0.646],
  ["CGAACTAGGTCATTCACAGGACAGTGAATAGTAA", 1.5]
]}
